# measured-on: BLM (Homo sapiens, UniProt P54132, K38R)
# Construct: recombinant, pET28a-sumo in E. coli BL21(DE3); amine-coupled to CM5 chip
# Sequence (P54132 whole entry K38R): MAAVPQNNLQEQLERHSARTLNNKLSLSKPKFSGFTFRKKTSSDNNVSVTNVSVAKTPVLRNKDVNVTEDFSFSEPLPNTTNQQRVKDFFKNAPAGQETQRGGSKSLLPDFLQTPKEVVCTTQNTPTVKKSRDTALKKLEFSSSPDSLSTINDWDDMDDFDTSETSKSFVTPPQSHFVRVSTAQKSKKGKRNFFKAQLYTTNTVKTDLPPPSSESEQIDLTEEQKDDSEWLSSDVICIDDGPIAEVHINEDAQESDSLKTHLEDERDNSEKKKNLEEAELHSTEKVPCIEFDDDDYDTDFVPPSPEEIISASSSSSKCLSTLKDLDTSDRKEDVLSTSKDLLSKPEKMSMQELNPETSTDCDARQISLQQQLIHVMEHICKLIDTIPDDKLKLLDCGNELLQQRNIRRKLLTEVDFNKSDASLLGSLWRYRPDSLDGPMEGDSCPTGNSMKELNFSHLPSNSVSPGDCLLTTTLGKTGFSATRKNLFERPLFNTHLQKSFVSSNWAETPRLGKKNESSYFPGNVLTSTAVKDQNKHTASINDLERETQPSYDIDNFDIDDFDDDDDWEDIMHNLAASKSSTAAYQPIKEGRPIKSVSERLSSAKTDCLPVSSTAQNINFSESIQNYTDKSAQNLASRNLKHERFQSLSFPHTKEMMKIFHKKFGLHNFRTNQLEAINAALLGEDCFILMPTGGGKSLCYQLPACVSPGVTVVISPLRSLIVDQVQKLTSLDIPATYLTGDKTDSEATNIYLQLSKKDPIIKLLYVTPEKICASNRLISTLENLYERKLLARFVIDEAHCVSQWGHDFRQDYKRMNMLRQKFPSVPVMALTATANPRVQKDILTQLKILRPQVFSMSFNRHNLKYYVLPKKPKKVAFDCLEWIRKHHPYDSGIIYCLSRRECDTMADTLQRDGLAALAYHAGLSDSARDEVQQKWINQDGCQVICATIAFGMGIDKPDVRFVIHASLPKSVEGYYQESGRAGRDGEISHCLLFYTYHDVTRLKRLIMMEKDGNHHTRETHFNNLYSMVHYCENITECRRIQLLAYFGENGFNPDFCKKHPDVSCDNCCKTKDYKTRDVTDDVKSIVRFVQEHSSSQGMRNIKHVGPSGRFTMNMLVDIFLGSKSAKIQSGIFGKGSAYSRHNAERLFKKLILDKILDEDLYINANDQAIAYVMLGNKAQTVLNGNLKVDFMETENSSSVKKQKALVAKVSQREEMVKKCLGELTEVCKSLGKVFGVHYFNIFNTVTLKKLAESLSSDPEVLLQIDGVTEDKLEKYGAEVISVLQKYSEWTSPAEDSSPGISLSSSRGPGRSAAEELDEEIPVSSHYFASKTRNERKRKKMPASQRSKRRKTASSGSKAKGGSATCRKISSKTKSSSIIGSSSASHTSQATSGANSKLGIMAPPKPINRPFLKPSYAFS
# assay-overview: SPR (Biacore T200), multicycle kinetics, global […] Langmuir fit
readout-type: Kd (nM)
Response body: numeric value in nM, unit text excluded.

Task: Print BLM (Homo sapiens, UniProt P54132, K38R) Kd for CCc1c2c(nc3ccc(OC(=O)N4CCC(N5CCCCC5)CC4)cc13)-c1cc3c(c(=O)n1C2)COC(=O)[C@]3(O)CC [irinotecan] .
Output: 911

----------
# measured-on: BLM (Homo sapiens, UniProt P54132, K31R)
# Construct: recombinant, pET28a-sumo in E. coli BL21(DE3); amine-coupled to CM5 chip
# Sequence (P54132 whole entry K31R): as the sequence (P54132 whole entry K38R) above, with K31R, R38K counted along it
# assay-overview: SPR (Biacore T200), multicycle kinetics, global […] Langmuir fit
readout-type: Kd (nM)
Response body: numeric value in nM, unit text excluded.

Task: Give the measured Kd for CCc1c2c(nc3ccc(OC(=O)N4CCC(N5CCCCC5)CC4)cc13)-c1cc3c(c(=O)n1C2)COC(=O)[C@]3(O)CC [irinotecan]
Output: 776
